Origin of values: patent US8519136B2

I'd be grateful if you could share measured pIC50 for these entries.
Target: GST-tagged human Aurora B(AurB)/His-tagged human INCENP complex proteins (Homo sapiens, UniProt Q96GD4)
Construct: GST
Sequence (Q96GD4 whole entry): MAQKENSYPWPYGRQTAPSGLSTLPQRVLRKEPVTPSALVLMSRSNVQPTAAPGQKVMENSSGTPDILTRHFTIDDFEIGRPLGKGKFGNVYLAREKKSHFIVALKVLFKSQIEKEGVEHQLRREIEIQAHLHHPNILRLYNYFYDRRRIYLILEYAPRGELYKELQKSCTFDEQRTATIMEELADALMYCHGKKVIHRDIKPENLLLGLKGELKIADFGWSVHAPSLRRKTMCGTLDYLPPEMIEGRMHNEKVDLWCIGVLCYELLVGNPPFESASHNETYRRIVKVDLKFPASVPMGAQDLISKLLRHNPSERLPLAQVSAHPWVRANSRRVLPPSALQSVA
Sequence (Q9NQS7 803-916 partner limits assumed): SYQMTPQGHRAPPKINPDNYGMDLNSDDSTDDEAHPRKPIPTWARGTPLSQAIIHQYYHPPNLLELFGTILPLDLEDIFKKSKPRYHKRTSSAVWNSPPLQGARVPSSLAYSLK
Assay: Aurora B inhibitory activity (Method A, IMAP kit)
Settings: 40 μM ATP, 25° C., 45 minutes
Structures can show the parent of a compound that is named as a salt.
Scale: negative log10 of molar concentration, which is what pIC50 denotes.

## Task Consider the compound CONC(=O)C1(Cc2cccc(Nc3cc[nH]n3)n2)CCN(C(=O)c2cccc(C(F)(F)F)c2F)CC1 and give its recorded pIC50.
## Result 6.26

## Task Tell us which pIC50 value is on record for Cc1cc(Nc2cccc(CC3(c4n[nH]c(=O)o4)CCN(C(=O)c4cccc(F)c4F)CC3)n2)n[nH]1
## Result 6.80

## Task # return recorded pIC50 for entry NC(=O)C1(Cc2cccc(Nc3cc[nH]n3)n2)CCN(C(=O)c2cccc(C(F)(F)F)c2F)CC1
## Result 6.87

## Task Name the recorded pIC50 of the compound listed here: O=C(c1cccc(Cl)c1F)N1CCC(Cc2cc(-c3ccccc3)cc(Nc3cc[nH]n3)n2)(c2n[nH]c(=O)o2)CC1
## Result 6.42

## Task Return pIC50 (reported value) for this compound: O=C(c1cccc(F)c1F)N1CCC(Cc2cccc(Nc3cc[nH]n3)n2)(c2n[nH]c(=O)o2)CC1 [Example 11, trifluoroacetate]
## Result 6.63

## Task Please look at this compound and report its pIC50: Cc1cc(Nc2cc[nH]n2)nc(CC2CCN(C(=O)c3cccc(Cl)c3F)CC2)n1 [Example 3, trifluoroacetate]
## Result 6.40

## Task Please report the measured pIC50 for O=C(c1cccc(C(F)(F)F)c1F)N1CCC(Cc2cccc(Nc3cc[nH]n3)n2)(c2n[nH]c(=O)o2)CC1
## Result 7.45

## Task Supply reported pIC50 belonging to this compound: Cl.O=C(c1cccc(Cl)c1F)N1CCC(O)(Cc2cccc(Nc3cc[nH]n3)n2)CC1 [Example 2, hydrochloride]
## Result 6.43

## Task Give pIC50 for the following compound: Cc1cc(Nc2cccc(CC3(c4n[nH]c(=O)o4)CCN(C(=O)c4cccc(Cl)c4F)CC3)n2)n[nH]1
## Result 7.11

* * *

Biological target: His-tagged human Aurora A (Homo sapiens, UniProt O14965)
Construct: His (N); made in house; host or cells: Escherichia coli BL21-CodonPlus(DE3)-RIL
Assay: Aurora A inhibitory activity (IMAP fluorescence polarization)
Assay type: biochemical
Details: 20 μM ATP, 30° C., 120 minutes
Structures can show the parent of a compound that is named as a salt.
Provide the reported IC50 of each item.
Use nM as the unit, but write only the number.

## Task Note down IC50 recorded for O=C(c1cccc(Cl)c1F)N1CCC(Cc2cccc(Nc3cc[nH]n3)n2)(c2n[nH]c(=O)o2)CC1 [Example 10, trifluoroacetate]
## Result 0.27

## Task Kindly indicate its recorded IC50. Item: CCOC(=O)C1(Cc2cccc(Nc3cc[nH]n3)n2)CCN(C(=O)c2cccc(Cl)c2F)CC1 [Example 4]
## Result 1.14

## Task Please list IC50 recorded for the compound Cc1cc(Nc2cc[nH]n2)nc(CC2(C(N)=O)CCN(C(=O)c3cccc(Cl)c3F)CC2)n1 [Example 18, trifluoroacetate]
## Result 1.23

## Task Recall and state the measured IC50 for Cc1cc(Nc2cc[nH]n2)nc(CC2CCN(C(=O)c3cccc(Cl)c3F)CC2)n1 [Example 3, trifluoroacetate] .
## Result 1.6

## Task Look up and state reported IC50 for Cc1cc(Nc2cccc(CC3(c4n[nH]c(=O)o4)CCN(C(=O)c4cccc(F)c4F)CC3)n2)n[nH]1 [Example 16]
## Result 0.41

## Task Quickly give me recorded IC50 for Cc1cc(Nc2cccc(CC3(c4n[nH]c(=O)o4)CCN(C(=O)c4cccc(Cl)c4F)CC3)n2)n[nH]1 [Example 15]
## Result 0.25

* * *

Biological target: GST-tagged human Aurora B(AurB)/His-tagged human INCENP complex proteins (Homo sapiens, UniProt Q96GD4)
Construct: GST
Assay: Aurora B inhibitory activity (Method A, IMAP kit)
Conditions: 40 μM ATP, 25° C., 45 minutes
Structures can show the parent of a compound that is named as a salt.
Provide the reported IC50 of each item.

## Task Specify IC50 for Cc1cc(Nc2cc[nH]n2)nc(CC2(C(N)=O)CCN(C(=O)c3cccc(Cl)c3F)CC2)n1 [Example 18, trifluoroacetate] and stop.
## Result > 1000 nM

## Task Quickly give me recorded IC50 for O=c1[nH]nc(C2(Cc3cccc(Nc4cc[nH]n4)n3)CCN(S(=O)(=O)c3ccccc3C(F)(F)F)CC2)o1 [Example 14, trifluoroacetate]
## Result > 1000 nM

## Task Using the record for O=c1[nH]nc(C2(Cc3cccc(Nc4cc[nH]n4)n3)CCN(C(c3cccc(C(F)(F)F)c3)C(F)(F)F)CC2)o1 (stereo not shown) [Example 19, trifluoroacetate] , state its measured IC50.
## Result > 1000 nM

## Task Return IC50 for the following compound: O=c1[nH]nc(C2(Cc3cccc(Nc4cc[nH]n4)n3)CCN(S(=O)(=O)c3cccc(Cl)c3Cl)CC2)o1 [Example 13, trifluoroacetate]
## Result 609 nM

## Task Read off the recorded IC50 for CCOC(=O)C1(Cc2cccc(Nc3cc[nH]n3)n2)CCN(C(=O)c2cccc(C(F)(F)F)c2F)CC1
## Result 555 nM

## Task Return value of IC50 for input O=C(c1cccc(Cl)c1F)N1CCC(Cc2cccc(Nc3cc[nH]n3)n2)(c2n[nH]c(=O)o2)CC1 [Example 10, trifluoroacetate] , no commentary.
## Result 166 nM

## Task Look up IC50 of CCOC(=O)C1(Cc2cccc(Nc3cc[nH]n3)n2)CCN(C(=O)c2cccc(Cl)c2F)CC1 and report it.
## Result > 1000 nM

* * *

Answer each item with its documented IC50.
Sequence of the target: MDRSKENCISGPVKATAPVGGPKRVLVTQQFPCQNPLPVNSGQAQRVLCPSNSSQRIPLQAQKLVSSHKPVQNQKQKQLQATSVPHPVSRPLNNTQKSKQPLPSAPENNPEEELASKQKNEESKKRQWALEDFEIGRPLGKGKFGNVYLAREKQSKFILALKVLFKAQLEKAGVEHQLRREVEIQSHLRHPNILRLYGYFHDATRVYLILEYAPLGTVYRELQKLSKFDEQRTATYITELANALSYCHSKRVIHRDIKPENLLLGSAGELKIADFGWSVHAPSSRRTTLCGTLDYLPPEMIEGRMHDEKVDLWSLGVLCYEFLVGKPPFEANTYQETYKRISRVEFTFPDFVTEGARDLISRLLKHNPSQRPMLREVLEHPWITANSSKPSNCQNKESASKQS
Where a name gives a salt, the structure may show the parent alone.
Form entry: value (pM) — number only.

## Task Supply IC50 value. Item: CONC(=O)C1(Cc2cccc(Nc3cc[nH]n3)n2)CCN(C(=O)c2cccc(C(F)(F)F)c2F)CC1
## Result 790

## Task Read off the recorded IC50 for O=c1[nH]nc(C2(Cc3cccc(Nc4cc[nH]n4)n3)CCN(S(=O)(=O)c3ccccc3C(F)(F)F)CC2)o1 [Example 14, trifluoroacetate]
## Result 400

## Task Please list IC50 recorded for the molecule CCOC(=O)C1(Cc2cccc(Nc3cc[nH]n3)n2)CCN(C(=O)c2cccc(C(F)(F)F)c2F)CC1
## Result 630

## Task Read the entry O=C(c1cccc(F)c1F)N1CCC(Cc2cccc(Nc3cc[nH]n3)n2)(c2n[nH]c(=O)o2)CC1 [Example 11, trifluoroacetate] and write its reported IC50.
## Result 260

## Task // Input: O=c1[nH]nc(C2(Cc3cccc(Nc4cc[nH]n4)n3)CCN(S(=O)(=O)c3cccc(Cl)c3Cl)CC2)o1 [Example 13, trifluoroacetate] . Output its IC50 only.
## Result 2550

## Task Complete the entry with IC50 for Cl.O=C(c1cccc(Cl)c1F)N1CCC(O)(Cc2cccc(Nc3cc[nH]n3)n2)CC1 [Example 2, hydrochloride]
## Result 910

## Task Write down IC50 measured for item O=c1[nH]nc(C2(Cc3cccc(Nc4cc[nH]n4)n3)CCN(C(c3cccc(C(F)(F)F)c3)C(F)(F)F)CC2)o1 (stereo not shown) [Example 19, trifluoroacetate]
## Result 1270
